Source: patent US20220236254A1

System under test: polypeptide identified herein as SEQ ID NO: 2 (hT2R44) (Homo sapiens, UniProt P59541, F252L)
Construct: expressed in transfected cells; host or cells: cells expressing a promiscuous G protein (G16g44)
Sequence (P59541 whole entry F252L): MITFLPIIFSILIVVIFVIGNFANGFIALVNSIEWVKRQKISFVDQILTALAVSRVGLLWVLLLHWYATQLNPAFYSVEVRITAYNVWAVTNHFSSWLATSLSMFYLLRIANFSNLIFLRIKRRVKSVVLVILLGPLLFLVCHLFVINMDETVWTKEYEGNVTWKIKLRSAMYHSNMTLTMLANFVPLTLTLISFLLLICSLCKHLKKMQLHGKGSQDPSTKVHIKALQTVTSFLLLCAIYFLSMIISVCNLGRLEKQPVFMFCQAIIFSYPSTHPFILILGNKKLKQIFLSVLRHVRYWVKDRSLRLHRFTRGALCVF
Assay notes: Bitterness antagonism: PMFs antagonizing limonin on cells expressing the receptor
Format: cell-based
Test conditions: limonin 25 μM; antagonist 200 μM (no antagonist: 98)
Metric name: % Limonin Activation (%)
The response must be a number in % with no trailing unit.

Worked examples follow.
| Molecule | % Limonin Activation, % |
| --- | --- |
| COc1ccc(-c2cc(=O)c3c(OC)c(OC)c(OC)cc3o2)cc1OC | 70 |
| COc1cc(-c2cc(=O)c3c(OC)c(OC)c(OC)cc3o2)ccc1O | 64 |
| COc1ccc(-c2oc3c(OC)c(OC)c(OC)c(OC)c3c(=O)c2OC)cc1OC | 79 |

Now consider the entry below.
For the molecule `COc1ccc(-c2cc(=O)c3c(OC)c(OC)c(OC)c(OC)c3o2)cc1OC` , what % Limonin Activation is on record?
74
